- experimental_details: Thermal stability of compound in DMSO/methanol assessed as decomposition temperature by UV spectroscopic method
- Type: physicochemical
observable: T (°C)
State the answer as a number, implicitly in °C.

compound: O=C(N/N=C/c1ccc(Oc2nc(Oc3ccc(/C=N/NC(=O)c4ccncc4)cc3)nc(Oc3ccc(/C=N/NC(=O)c4ccncc4)cc3)n2)cc1)c1ccncc1
T [°C]: 236.25
--
compound: O=C(N/N=C/c1ccc(Oc2nc(Oc3ccc(/C=N/NC(=O)c4cccc(O)c4)cc3)nc(Oc3ccc(/C=N/NC(=O)c4cccc(O)c4)cc3)n2)cc1)c1cccc(O)c1
T [°C]: 297.87
--
compound: O=C(N/N=C/c1ccc(Oc2nc(Oc3ccc(/C=N/NC(=O)c4ccccc4)cc3)nc(Oc3ccc(/C=N/NC(=O)c4ccccc4)cc3)n2)cc1)c1ccccc1
T [°C]: 294.21
--
compound: O=C(N/N=C/c1ccc(Oc2nc(Oc3ccc(/C=N/NC(=O)c4ccc([N+](=O)[O-])cc4)cc3)nc(Oc3ccc(/C=N/NC(=O)c4ccc([N+](=O)[O-])cc4)cc3)n2)cc1)c1ccc([N+](=O)[O-])cc1
T [°C]: 304.87
--
compound: CCCCC(CC)COC(=O)c1ccc(Nc2nc(Nc3ccc(C(=O)OCC(CC)CCCC)cc3)nc(Nc3ccc(C(=O)OCC(CC)CCCC)cc3)n2)cc1 (configuration not stated)
T [°C]: 232.29

// T lookup, compound = `O=C(N/N=C/c1ccc(Oc2nc(Oc3ccc(/C=N/NC(=O)c4ccccc4O)cc3)nc(Oc3ccc(/C=N/NC(=O)c4ccccc4O)cc3)n2)cc1)c1ccccc1O` , result: 269.71

// T lookup, compound = `O=C(N/N=C/c1ccc(Oc2nc(Oc3ccc(/C=N/NC(=O)c4ccc(O)cc4)cc3)nc(Oc3ccc(/C=N/NC(=O)c4ccc(O)cc4)cc3)n2)cc1)c1ccc(O)cc1` , result: 272.15

###

Below, each of the molecules is paired with its reported Activity value.
- experimental_details: Antioxidant activity assessed as DPPH free radical scavenging activity at 100 uM incubated for 60 mins by spectrophotometric method relative to control
- Format: functional
Field: value (include unit after the number)

Past entries and their recorded results:
molecule: O=C(N/N=C/c1ccc(Oc2nc(Oc3ccc(/C=N/NC(=O)c4ccncc4)cc3)nc(Oc3ccc(/C=N/NC(=O)c4ccncc4)cc3)n2)cc1)c1ccncc1
Activity: 0%

molecule: CCCCC(CC)COC(=O)c1ccc(Nc2nc(Nc3ccc(C(=O)OCC(CC)CCCC)cc3)nc(Nc3ccc(C(=O)OCC(CC)CCCC)cc3)n2)cc1 (stereo not drawn)
Activity: 0%

Now consider a different molecule.
// Activity lookup, molecule = `O=C(N/N=C/c1ccc(Oc2nc(Oc3ccc(/C=N/NC(=O)c4ccc(O)cc4)cc3)nc(Oc3ccc(/C=N/NC(=O)c4ccc(O)cc4)cc3)n2)cc1)c1ccc(O)cc1` , result: 4.4%

###

Below, each of the compounds is paired with its reported degraded value.
- experimental_details: Thermal stability of compound in DMSO/methanol assessed as mass loss by UV spectroscopic method
- Format: physicochemical
- test_parameters: read-out: Drug degradation
State the answer as a number, implicitly in %.

query_smiles: Oc1ccc(/C=C/c2cc(O)cc(O)c2)cc1
unit_label: %
degraded: 32.9

query_smiles: CC(C)(C)c1ccc(C(=O)N/N=C/c2ccc(Oc3nc(Oc4ccc(/C=N/NC(=O)c5ccc(C(C)(C)C)cc5)cc4)nc(Oc4ccc(/C=N/NC(=O)c5ccc(C(C)(C)C)cc5)cc4)n3)cc2)cc1
unit_label: %
degraded: 41.2

query_smiles: O=C(N/N=C/c1ccc(Oc2nc(Oc3ccc(/C=N/NC(=O)c4ccc([N+](=O)[O-])cc4)cc3)nc(Oc3ccc(/C=N/NC(=O)c4ccc([N+](=O)[O-])cc4)cc3)n2)cc1)c1ccc([N+](=O)[O-])cc1
unit_label: %
degraded: 37.3

Now consider a different compound.
// degraded lookup, compound = `O=C(N/N=C/c1ccc(Oc2nc(Oc3ccc(/C=N/NC(=O)c4ccccc4O)cc3)nc(Oc3ccc(/C=N/NC(=O)c4ccccc4O)cc3)n2)cc1)c1ccccc1O` , result: 19.6
